Hello, the source for this data is PubChem BioAssay (NCI), in case you need it.

# System: MDA-MB-231 breast
# test_method_notes: NCI-60 one-dose screen, 48 h
# assay_setup: 10 µM unless noted
Compounds without any hit were thinned out: in the full panel of roughly 83,000, 20% have a hit. The source made the active and inactive calls. How the source made its calls: active means growth percent below 10; inactive means the rest.
The reply should name one outcome from active, inactive

Reference set, count: 5
| compound | label |
| --- | --- |
| CCOC(=O)c1cnn(CC(O)CC)c1NC(=O)NCc1ccccc1C(F)(F)F (stereo unspecified) | inactive |
| CCOC(=O)C(=Cc1ccc(C#N)cc1)C(=O)OCC | inactive |
| COc1ccc(-c2nn3c(-c4cc(F)c(Cl)cc4Cl)nnc3s2)cc1 | inactive |
| COc1ccc(/C=C(\C#N)c2cc3ccccc3[nH]2)cc1 | inactive |
| COC(=O)[C@H]1Cc2c([nH]c3ccccc23)[C@@H](c2cccs2)N1 | inactive |

Identify the outcome logged in this assay for the compound shown: NS(=O)(=O)c1ccc(C(=O)N=Nc2c(O)[nH]c3c(F)cccc23)cc1
inactive

Recorded test call requested for O=C1C(Nc2ccc(Cl)cc2)=C(I)C(=O)c2ncccc21
active

Query: recorded result category for Cc1cc2nc(C(Cl)Cl)nc(-c3ccc(Cl)cc3)n2n1 in this test
active

Called result for CCCCC1=C(Br)C(=O)c2nc(C)ccc2C1=O
inactive

Which outcome was assigned to CCCc1cc(C(N)=S)ccn1 in this test?
inactive

# fetch the recorded call for Nc1ncc(-c2ccc3ncnc(N4CCc5ccc(Cl)cc54)c3c2)cc1C(F)(F)F here
inactive

* * *

# Tested on: SR leukemia
# test_method_notes: NCI-60 one-dose screen, 48 h (100 = growth as untreated, 0 = no growth, -100 = all killed)
# assay_setup: 10 µM unless noted
# Description: Growth inhibition of the SR human tumor cell line is measured as a screen for anti-cancer activity. Cells are grown in 96 well plates and exposed to the test compound for 48 hours. Compounds are tested at a single concentration, which is 10^-5 M for most compounds. The reported endpoint is percent growth (GI% or GIPRCNT), where numbers from 0 - 100% represent growth inhibition, and numbers from -100% - 0 represent cell death. For example, a value of 40 represents 60% growth inhibition. […]
Compounds without any hit were thinned out: in the full panel of roughly 83,000, 20% have a hit.
assay_readout: growth (%)
Kindly answer with a numeric value in %, unit omitted.

Recorded results for 3 compounds are shown here.
| compound | growth / % |
| --- | --- |
| NC(=O)c1c(NC(=O)/C=C/c2cccs2)sc2c1CCC(=O)C2 | 11.2 |
| O=C(NCCCN1CCCCC1)c1ccc(-c2nc3ccc4[nH]ncc4c3c3c2CCCC3)cc1 | -18.3 |
| C=C1C(=O)O[C@@H]2[C@H]3[C@H](COC(C)=O)[C@@H](OC(C)=O)C[C@H]3C(=C)[C@@H](O)C[C@@H]12 | 72.6 |

Look up growth with SR leukemia for this compound: O=C(/C=C/c1ccc([N+](=O)[O-])cc1)c1ccccc1
7.6

Notebook entry, SR leukemia assay: growth of Cc1ccc2c(c1)C(C)Cc1c(ncnc1-n1cnc3cc(C)ccc31)N2C (centres undefined) = ?
1.44

* * *

# Test system: CCRF-CEM leukemia
# test_method_notes: NCI-60 one-dose screen, 48 h
# assay_setup: 10 µM unless noted
This is part of a sample that, as a whole, favours compounds with a hit. Of some 83,000 tested, about 20% had one in any assay. Calls of active or inactive are those of the source. The calls were made as follows: active = growth percent below 10; inactive = the rest.
I would appreciate it if you answered using one of these outcomes: YES for active, NO for inactive

For orientation, consider the following solved cases.
| molecule | label |
| --- | --- |
| COc1ccc(C(c2cc(OC)c(OC)c(OC)c2)n2ccnc2)cc1O (stereo not given) | YES |
| CCCCC1COc2cccc3c2N1C=C/C3=C\C(=O)N(C)c1cccc(Cl)c1 (stereo not given) | NO |
| COC1=CC(c2ccc[nH]2)=N/C1=C\c1[nH]c(C)c(C(=O)Oc2ccccc2)c1C | NO |
| O=C(CCl)n1nnnc1Cc1ccccc1 | NO |
| CN1Cn2c(ccc2C(F)(F)F)C(=O)CS1(=O)=O | NO |

Short answer needed: outcome of this test for COc1cc(C=O)ccc1Oc1ccc([N+](=O)[O-])cc1[N+](=O)[O-] ?
NO

Returns: the outcome recorded for CSc1nnc(-c2cc3c([nH]c4ccccc43)c(-c3cccc(O)c3)n2)n1-c1ccc(C)cc1 in this assay.
NO

Hi team, can someone confirm the assay call for Cc1cc(N2CCCCC2)nc(NCc2cc(Nc3ccnc4cc(Cl)ccc34)ccc2F)n1 ?
YES

Could you please tell me the result logged for C#CCn1cnc2cnc(Nc3cccc(NC(=O)CCl)c3)nc21 in this assay?
YES

Can you look up the reported call for COc1nc2ccc(C)cc2cc1/C=[N+](\[O-])c1ccccc1 for me?
NO

* * *

# System: MDA-MB-231 breast
# test_method_notes: NCI-60 one-dose screen, 48 h
# assay_setup: 10 µM unless noted
Compounds without any hit were thinned out: in the full panel of roughly 83,000, 20% have a hit. Active and inactive are the calls of the source. Rule for the calls: active = growth percent below 10; inactive = the rest.
One label from this list, please: YES = active, NO = inactive

Solved entries:
| smiles_text | label |
| --- | --- |
| COc1ccc(NC(=O)Nc2ccccc2CNc2nc(Nc3ccc(OCCN4CCCC4)cc3)ncc2Cl)cc1 | YES |
| COc1ccc(-c2ccc(-c3ccc(C(=N)N)cn3)s2)cc1Cl | YES |
| COc1ccc(/C=C/C(=O)c2cc3c(N)c(C(=O)Nc4ccccc4)sc3nc2C)cc1 | NO |
| C/C(=C(\c1ccc(OCCN2CCOCC2)cc1)c1ccc(OC(=O)C2CCCCC2)cc1)c1ccc(Cl)cc1 | NO |

Could you please tell me the result logged for NC(=O)c1c(NC(=O)/C=C/c2cccs2)sc2c1CCC(=O)C2 in this assay?
NO

* * *

# Tested on: SF-539 CNS
# test_method_notes: NCI-60 one-dose screen, 48 h
# assay_setup: 10 µM unless noted
About 83,000 compounds went through this panel and 20% of them were active in at least one assay; those are over-represented in the sample as a whole. Calls of active or inactive are those of the source. The calls were made as follows: active = growth percent below 10; inactive = the rest.
Give one outcome, nothing more. List: yes (1) (active), no (0) (inactive)

| compound | assay_target | label |
| --- | --- | --- |
| COc1cc(-c2[nH]ncc2Nc2ccc(Cl)cc2)cc(OC)c1OC | SF-539 CNS | no (0) |

How was COc1c(O)c(O)cc2c3c(oc12)CC(c1ccc2c(c1)OCO2)CC3=O (stereo unspecified) classified in this test?
no (0)

* * *

# System: OVCAR-3 ovarian
# test_method_notes: NCI-60 one-dose screen, 48 h (100 = growth as untreated, 0 = no growth, -100 = all killed)
# assay_setup: 10 µM unless noted
Compounds without any hit were thinned out: in the full panel of roughly 83,000, 20% have a hit. Activity calls are given as the source filed them. How the source made its calls: active means growth percent below 10; inactive means the rest.
growth reference

| compound | assay_target | growth |
| --- | --- | --- |
| O=C1CCCCN1CCCCC#Cc1cccc(C#Cc2cccnc2)c1 | OVCAR-3 ovarian | 89.7% (inactive) |

Which growth is listed for CC(=O)c1nn(-c2ccccc2)/c(=N/N=Cc2cn(-c3ccccc3)nc2-c2cc3ccccc3oc2=O)s1 ?
116% (inactive)

Return reported growth; argument: Nc1nc2ccccc2c2c(=O)c3ccc(Cl)cc3sc12
104% (inactive)

Fill in: growth of C=C1CC[C@@H]2[C@](C)(COC(C)=O)[C@H](OC(C)=O)CC[C@@]2(C)[C@@H]1CC(Nc1ccc(S(=O)(=O)Nc2nccs2)cc1)C1=CCOC1=O (stereo not given in full) is ___
-70.2% (active)

Please give the measured growth for this compound: O=[N+]([O-])c1cc(C(F)(F)F)ccc1Sc1ccc(C(F)(F)F)cc1[N+](=O)[O-]
92.3% (inactive)

* * *

# Tested on: LOX IMVI melanoma
# test_method_notes: NCI-60 one-dose screen, 48 h (100 = growth as untreated, 0 = no growth, -100 = all killed)
# assay_setup: 10 µM unless noted
Compounds without any hit were thinned out: in the full panel of roughly 83,000, 20% have a hit.
Below, each of the compounds is paired with its reported growth value.
API: value field is a number in %; no unit string.

These recorded examples may help you get a feel for the data.
| smiles_text | growth [%] |
| --- | --- |
| CC/C(=C(/c1ccc(Cl)cc1)c1ccc(OCCN2CCOCC2)cc1)c1ccccc1 | 108 |
| BrC1=C(Br)C(Br)(Br)C(Br)=C1Br | 45.5 |
| C=CCNC(=O)Cc1c(-c2ccc(OC)cc2)oc2c(OC)c3c(c(OC)c12)OCO3 | 93 |

Endpoint output: growth of O=C1CCc2c(sc3[nH]c(=S)n(Cc4ccc(Cl)cc4)c(=O)c23)C1 . Value?
2.41

I'd like to know its growth. The compound in question is COc1c(NC=O)c2c(c([N+](=O)[O-])c1OC)C(=O)OC2
103

Need growth, item COC(=O)[C@H]1Cc2c([nH]c3ccccc23)[C@@H](c2cccs2)N1
104

Reported growth, compound Cc1ccc(S(=O)(=O)OC[C@@]2(C)CC[C@]3(C)CC[C@]4(C)C(=C3C2)C=C[C@@H]2[C@@]3(C)CCCNC(C)(C)[C@@H]3CC[C@]24C)cc1 : ____
-99.2

Which measured growth value corresponds to O=C1C(N2CCOCC2)=C(I)C(=O)c2ncccc21 ?
43.4

Any idea what its growth is? The compound is CCn1cc(C(=O)NN=C2CCCC2)c(=O)c2ccc(C)nc21
98.1

Look up growth for this compound: Nc1nc(CSc2n[nH]c(N)n2)nc(Nc2ccccc2)n1
98.3
